- System tested: T1, PLAC1 peptide on HLA-A*02:01 (human)
- T1 peptide: VLCSIDWFM
- Experimental protocol: cytokine release
Measured endpoint: binding result

Binder | Val
TCRCD8-mPL#12 (TCR, V domains shown) Valpha: GDQVEQSPSALSLHEGTGSALRCNFTTTMRAVQWFQQNSRGSLINLFYLASGTKENGRLKSTFNSKESYSTLHIRDAQLEDSGTYFCAAVNTNTGKLTFGDGTVLTVKP Vbeta: SVLLYQKPNRDICQSGTSLKIQCVADSQVVSMFWYQQFQEQSLMLMATANEGSEATYESGFTKDKFPISRPNLTFSTLTVNNARPGDSSIYFCSSRTPNTGQLYFGEGSKLTVL | recognises
TCRCD8-mPL#14 (TCR, V domains shown) Valpha: TQTVSQSDAHVTVFEGDSVELRCNYSYGGSIYLSWYIQHHGHGLQFLLKYYSGNPVVQGVNGFEAEFSKSDSSFHLRKASVHWSDSAVYFCAVSSGGYKVVFGSGTRLLVSP Vbeta: NTKITQSPRYLILGRANKSLECEQHLGHNAMYWYKQSAEKPPELMFLYNLKQLIRNETVPSRFIPECPDSSKLLLHISAVDPEDSAVYFCASSQGGTEVFFGKGTRLTVV | recognises
TCRCD8-mPL#19 (TCR, V domains shown) Valpha: GDSVIQMQGQVTLSENDFLFINCTYSTTGYPTLFWYVQYSGEGPQLLLQVTTANNKGSSRGFEATYDKGTTSFHLQKTSVQEIDSAVYYCAMSDASGSWQLIFGSGTQLTVMP Vbeta: EAAVTQSPRSKVAVTGGKVTLSCHQTNNHDYMYWYRQDTGHGLRLIHYSYVADSTEKGDIPDGYKASRPSQENFSLILELASLSQTAVYFCASSPDRPSYNSPLYFAAGTRLTVT | recognises

Reference source: patent US20190060430A1
